ASSAY TARGET: Caspase-3 (Homo sapiens, UniProt P42574)
Construct: mixing the compounds with the respective active caspases; purchased BioVision K153-100
Sequence (P42574 29-175 limits assumed): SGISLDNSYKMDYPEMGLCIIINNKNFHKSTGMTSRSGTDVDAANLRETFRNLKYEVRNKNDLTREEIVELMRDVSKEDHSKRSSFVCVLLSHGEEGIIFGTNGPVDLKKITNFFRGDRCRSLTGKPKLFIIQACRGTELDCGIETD
Sequence (P42574 176-277 limits assumed): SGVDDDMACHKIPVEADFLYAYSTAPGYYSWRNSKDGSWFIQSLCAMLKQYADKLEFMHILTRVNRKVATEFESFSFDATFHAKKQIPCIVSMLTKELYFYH
EXPERIMENTAL DETAILS: Caspase-3 inhibitor screening assay (BioVision kit, DEVD-AFC)
Assay type: biochemical
EXPERIMENTAL SETUP: read-out: % Inhibition at 100 uM Casp3
Structures can show the parent of a compound that is named as a salt.
We use 90% as the dividing line for inhibition at 100 µM: on or above the line is True, below is False.

Ask | Could you verify whether the entry CCOC(=O)/C=C/[C@@H](N)CC(=O)O [Compound 44, Asp ethyl vinyl ester tosyl salt] shows inhibition at 100 µM of no less than 90%?
Reply | False

Ask | Could you verify whether the entry CS(=O)(=O)/C=C/[C@H](CC(=O)O)NC(=O)C1CCCN1C(=O)[C@@H](NC(=O)[C@H](CC(=O)O)NC(=O)OCc1ccccc1)C1CC1 (stereo in doubt) shows inhibition at 100 µM of no less than 90%?
Reply | True

Ask | Could you verify whether the entry CS(=O)(=O)/C=C/[C@H](CC(=O)O)NC(=O)[C@H](CCC(=O)O)NC(=O)c1ccc2ccccc2n1 shows inhibition at 100 µM of no less than 90%?
Reply | False

Ask | Could you verify whether the entry CC(C)[C@H](NC(=O)[C@H](Cc1cn(C)c2ccccc12)NC(=O)[C@H](CC(=O)O)NC(=O)OCc1ccccc1)C(=O)N[C@H](/C=C/S(C)(=O)=O)CC(=O)O shows inhibition at 100 µM of no less than 90%?
Reply | True

---

ASSAY TARGET: Caspase-7 (Homo sapiens, UniProt P55210)
Construct: mixing the compounds with the respective active caspases; purchased BioVision K157-100
Sequence (P55210 24-198 limits assumed): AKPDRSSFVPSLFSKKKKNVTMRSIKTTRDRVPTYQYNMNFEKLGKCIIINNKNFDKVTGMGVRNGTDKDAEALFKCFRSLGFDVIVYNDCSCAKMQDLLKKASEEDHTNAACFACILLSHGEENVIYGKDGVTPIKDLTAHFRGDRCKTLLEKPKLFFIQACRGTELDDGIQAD
Sequence (P55210 207-303 limits assumed): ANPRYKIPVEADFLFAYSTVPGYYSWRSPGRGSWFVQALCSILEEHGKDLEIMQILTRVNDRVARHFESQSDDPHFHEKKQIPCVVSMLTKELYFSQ
EXPERIMENTAL DETAILS: Caspase-7 inhibitor screening assay (BioVision kit, DEVD-AFC)
Assay type: biochemical
EXPERIMENTAL SETUP: 10 uM; read-out: % Inhibition at 10 uM Casp7
Provide the recorded inhibition at 10 µM for the entries that follow.
A number alone suffices; assume %.

Ask | Given the entry CS(=O)(=O)/C=C/[C@H](CC(=O)O)NC(=O)[C@H](CCC(=O)O)NC(=O)c1ccc2ccccc2n1 , report its measured inhibition at 10 µM.
Reply | 0

Ask | Given the entry CS(=O)(=O)/C=C/[C@H](CC(=O)O)NC(=O)[C@H]1CCC(=O)N1 , report its measured inhibition at 10 µM.
Reply | 1

Ask | Given the entry CC(C)(C)[C@H](NC(=O)c1ccc2ncccc2c1)C(=O)N1CCCC1C(=O)N[C@H](/C=C/S(C)(=O)=O)CC(=O)O (stereo in doubt) , report its measured inhibition at 10 µM.
Reply | 3

Ask | Given the entry CC(C)(C)[C@H](NC(=O)c1ccc2ccccc2n1)C(=O)N1CC[C@@H]1C(=O)N[C@H](/C=C/S(C)(=O)=O)CC(=O)O , report its measured inhibition at 10 µM.
Reply | 0

Ask | Given the entry CS(=O)(=O)/C=C/[C@H](CC(=O)O)NC(=O)[C@@H](N)CCC(=O)O , report its measured inhibition at 10 µM.
Reply | 0

Ask | Given the entry CC(C)(C)[C@H](NC(=O)c1ccc2ccccc2n1)C(=O)N1CCC[C@@H]1C(=O)N[C@H](/C=C/S(C)(=O)=O)CC(=O)O , report its measured inhibition at 10 µM.
Reply | 0

Ask | Given the entry CC(C)(C)[C@@H](NC(=O)[C@H](CC(=O)O)NC(=O)OCc1ccccc1)C(=O)N1CC[C@@H]1C(=O)N[C@H](/C=C/S(C)(=O)=O)CC(=O)O , report its measured inhibition at 10 µM.
Reply | 97
